Consider the following compounds; for each one, report its Activity.
- Test system: Plasmodium berghei
- Assay protocol: Reduced parasitemia in Plasmodium berghei infected NMRI mice (Mus musculus)
- Type: functional
- Design: concentration or dose not given beside the values
Numbers only, in %.

Recorded Activity (compound "C[C@H]1[C@@H](CC(C[C@H]2O[C@@H]3O[C@]4(C)CC[C@H]5[C@H](C)CC[C@@H]([C@H]2C)[C@@]35OO4)=NNC(=O)c2ccncc2)O[C@@H]2O[C@]3(C)CC[C@H]4[C@H](C)CC[C@@H]1[C@@]24OO3" ): 99.4

Please examine the following record next.
Given item C[C@H]1[C@@H](CC2(C[C@H]3O[C@@H]4O[C@]5(C)CC[C@H]6[C@H](C)CC[C@@H]([C@H]3C)[C@@]46OO5)COC3(CCC(=O)CC3)O2)O[C@@H]2O[C@]3(C)CC[C@H]4[C@H](C)CC[C@@H]1[C@@]24OO3 (some centres not stated) , the value recorded as its Activity is 99.6

This collection of values is drawn from ChEMBL document CHEMBL1141568.
